# credit: patent US20030199671A1

assay_system: T1, human IgG4 (human, UniProt P01861-1 1-327 = IgG part)
T1 construct: Calbiochem; plasma IgG4 in anisotropy studies, myeloma-derived (cat. 400126) in batch/column studies; also called hIgG4
T1 sequence (P01861 other isoform, or with tags, fused parts or gaps): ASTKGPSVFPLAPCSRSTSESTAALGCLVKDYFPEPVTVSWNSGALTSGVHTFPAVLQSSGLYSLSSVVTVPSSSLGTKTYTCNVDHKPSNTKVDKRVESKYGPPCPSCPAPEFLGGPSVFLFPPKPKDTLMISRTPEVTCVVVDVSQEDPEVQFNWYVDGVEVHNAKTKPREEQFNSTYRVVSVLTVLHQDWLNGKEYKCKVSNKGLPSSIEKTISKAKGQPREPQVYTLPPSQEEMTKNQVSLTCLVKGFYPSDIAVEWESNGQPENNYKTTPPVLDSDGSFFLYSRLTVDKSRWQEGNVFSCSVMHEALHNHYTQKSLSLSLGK
assay_protocol: batch binding, immobilised ligand
Description: IgG targets were diluted into 10 mM phosphate buffer containing 150 mM NaCl and 0.01% Tween 20, pH 7.2 (PBST) or 50 mM Tris buffer containing, 150 mM NaCl and 0.01% Tween-20, pH 7.5 (TBST). […] The unbound target was then quantitated by reading the absorbance at 280 nm (normalized to 1 cm pathlength, 1.4 mg/ml A280 extinction coefficient) of the collection plate on a microplate spectrophotometer (Molecular Devices Corp., SPECTRAmax PLUS) against a buffer blank. […]
Hi! Just check whether Bound (% of Total Load) is below 60%. Below gives Y, equal or above gives N.

The following binders have reported results that may help.
binder	cat
Ac-GDNPMCWRASWWEDAYCINHEPGPEGGGK-NH2 (not fully specified (bridges); printed as Ac-GDNPMCWRASWWEDAYCINHEPGPEGGGK-NH2; cysteine pairing not given here, Derivative of DX596 (two internal lysines replaced by arginine and alanine); immobilised) [DX1071]	Y
Ac-GDNPMCWRAHWWEDAYCINHEPGPEGGGK-NH2 (not fully specified (bridges); printed as Ac-GDNPMCWRAHWWEDAYCINHEPGPEGGGK-NH2; cysteine pairing not given here, Derivative of DX596 (Lys-Lys to Arg-Ala and adjacent Ser to His); immobilised) [DX1072]	Y

Q. Criterion: Bound (% of Total Load) strictly below 60%. Is it met by Ac-GDSWNCAFHHNEMVWCDDGGTPGPEGGGK-NH2 (not fully specified (bridges); printed as Ac-GDSWNCAFHHNEMVWCDDGGTPGPEGGGK-NH2; cysteine pairing not given here, Immobilised on Sepharose) [DX597] ?
A. N
